Entry source: the Kinase Knowledgebase extract (Sharma et al. 2016)

molecular target: PIK3CD (Human)
pIC50: −log10 of the molar value.

>  <molecule>
Cc1cc(C(=O)N2CCN(c3c(C(C)Nc4ncnc5[nH]cnc45)cc(Cl)c4cccnc34)CC2)no1 (stereo not drawn)

>  <pIC50>
> 7.30

$$$$
>  <molecule>
CC(Nc1ncnc2[nH]cnc12)c1cc(Cl)c2cccnc2c1N1CCC(O)CC1 (stereo not drawn)

>  <pIC50>
> 7.30

$$$$
>  <molecule>
CC(Nc1ncnc2[nH]cnc12)c1cc(Cl)c2cccnc2c1N1CC[C@@H](O)C1 (stereo partly drawn)

>  <pIC50>
> 7.30

$$$$
>  <molecule>
CC(Nc1ncnc2[nH]cnc12)c1cc(Cl)c2ccnnc2c1-c1cc(F)cc(F)c1 (stereo not drawn)

>  <pIC50>
> 7.30

$$$$
>  <molecule>
CC(Nc1nc(N)nc2[nH]cnc12)c1ccc2ccccc2c1-c1cccc(F)c1 (stereo not drawn)

>  <pIC50>
6.00 to 6.30

$$$$
>  <molecule>
CC(Nc1nc(N)nc2[nH]cnc12)c1ccc2ccccc2c1-c1cncc(F)c1 (stereo not drawn)

>  <pIC50>
> 7.30

$$$$
>  <molecule>
CC(Nc1nc(N)nc2[nH]cnc12)c1cc(F)c2ccnnc2c1-c1cccc(F)c1 (stereo not drawn)

>  <pIC50>
> 7.30

$$$$
>  <molecule>
CC(Nc1ncnc2[nH]cnc12)c1ccc2cccnc2c1-c1cc(F)cc(F)c1 (stereo not drawn)

>  <pIC50>
6.00 to 6.30

$$$$

====

PIK3CD (Human) (UniProt O00329): reported IC50 for various molecules.
Sequence (O00329 whole entry, looked up): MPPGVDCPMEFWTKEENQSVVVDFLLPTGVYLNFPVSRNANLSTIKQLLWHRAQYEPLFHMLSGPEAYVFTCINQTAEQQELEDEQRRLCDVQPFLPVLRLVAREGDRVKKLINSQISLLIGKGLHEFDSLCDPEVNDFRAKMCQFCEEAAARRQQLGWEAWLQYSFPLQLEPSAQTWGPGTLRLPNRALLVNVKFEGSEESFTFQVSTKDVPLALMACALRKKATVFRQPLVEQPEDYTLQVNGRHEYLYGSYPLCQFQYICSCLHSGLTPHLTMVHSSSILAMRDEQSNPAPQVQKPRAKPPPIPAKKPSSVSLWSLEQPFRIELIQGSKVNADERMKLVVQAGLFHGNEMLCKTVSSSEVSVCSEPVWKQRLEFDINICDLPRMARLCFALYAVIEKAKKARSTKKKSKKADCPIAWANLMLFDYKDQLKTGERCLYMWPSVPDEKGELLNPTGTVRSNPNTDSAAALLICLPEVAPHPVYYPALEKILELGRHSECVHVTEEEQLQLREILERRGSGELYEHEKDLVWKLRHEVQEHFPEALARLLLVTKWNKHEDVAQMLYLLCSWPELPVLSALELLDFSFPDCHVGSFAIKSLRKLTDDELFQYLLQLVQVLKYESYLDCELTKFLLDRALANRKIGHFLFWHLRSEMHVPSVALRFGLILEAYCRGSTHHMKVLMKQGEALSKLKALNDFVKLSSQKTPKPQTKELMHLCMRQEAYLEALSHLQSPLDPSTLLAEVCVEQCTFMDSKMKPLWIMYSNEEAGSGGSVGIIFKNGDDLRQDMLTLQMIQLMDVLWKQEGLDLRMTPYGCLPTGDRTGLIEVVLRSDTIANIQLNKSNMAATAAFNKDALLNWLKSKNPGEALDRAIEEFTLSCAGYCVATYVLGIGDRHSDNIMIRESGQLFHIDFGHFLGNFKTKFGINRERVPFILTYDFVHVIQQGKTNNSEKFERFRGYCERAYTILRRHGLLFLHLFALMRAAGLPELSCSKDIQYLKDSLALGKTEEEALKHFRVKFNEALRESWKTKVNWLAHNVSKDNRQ

>  <molecule>
Fc1cccc(-c2c(CNc3ncnc4[nH]cnc34)cc(Cl)c3ccnnc23)c1

>  <IC50>
500 to 1000 nM

$$$$
>  <molecule>
CC(Nc1ncnc2[nH]cnc12)c1cc(Cl)c2cccnc2c1N1CCC(N2CCCCC2)CC1 (centres undefined)

>  <IC50>
50 to 100 nM

$$$$
>  <molecule>
CC(Nc1ncnc2[nH]cnc12)c1ccc2cccnc2c1-c1ccccc1F (centres undefined)

>  <IC50>
500 to 1000 nM

$$$$
>  <molecule>
CC(Nc1ncnc2[nH]cnc12)c1cc(Cl)c2cccnc2c1N1CCN(C(=O)c2ccncc2)CC1 (centres undefined)

>  <IC50>
< 50 nM

$$$$
>  <molecule>
CC(Nc1ncnc2[nH]cnc12)c1cc(F)c2cccnc2c1N1CC[C@@H](O)C1 (some centres undefined)

>  <IC50>
100 to 250 nM

$$$$
>  <molecule>
CC(Nc1ncnc2[nH]cnc12)c1cc(Cl)c2cccnc2c1N1CCN(C2CCCCC2)CC1 (centres undefined)

>  <IC50>
50 to 100 nM

$$$$
>  <molecule>
CC(Nc1ncnc2[nH]cnc12)c1cc(Cl)c2cccnc2c1N1CCCC(F)C1 (centres undefined)

>  <IC50>
250 to 500 nM

$$$$
>  <molecule>
CC(Nc1ncnc2[nH]cnc12)c1nc(C#N)c2ccccc2c1-c1cccc(F)c1 (centres undefined)

>  <IC50>
50 to 100 nM

$$$$
>  <molecule>
Cc1nc(C(C)Nc2ncnc3[nH]cnc23)c(-c2cccc(F)c2)c2ccccc12 (centres undefined)

>  <IC50>
100 to 250 nM

$$$$

====

molecular target: UniProt O00329
Let's look at some compounds and their measured IC50.

>  <compound>
CC(Nc1ncnc2[nH]cnc12)c1cc(Cl)c2cccnc2c1N1CCN(C2CCC2)CC1 (centres undefined)

>  <measurement-target>
UniProt O00329

>  <IC50>
< 50 nM

$$$$
>  <compound>
CC(Nc1ncnc2[nH]cnc12)c1cc(Cl)c2cccnc2c1N1CCC(C#N)CC1 (centres undefined)

>  <measurement-target>
UniProt O00329

>  <IC50>
100 to 250 nM

$$$$
>  <compound>
C[C@@H](Nc1ncnc2[nH]cnc12)c1cc(F)c2cccnc2c1-c1cccc(F)c1

>  <measurement-target>
UniProt O00329

>  <IC50>
< 50 nM

$$$$
>  <compound>
Cc1cc(C(C)Nc2ncnc3[nH]cnc23)c(-c2cccc(F)c2)c2ncccc12 (centres undefined)

>  <measurement-target>
UniProt O00329

>  <IC50>
100 to 250 nM

$$$$
>  <compound>
CC(Nc1ncnc2[nH]cnc12)c1ccc2ccccc2c1-c1cccc(F)c1 (centres undefined)

>  <measurement-target>
UniProt O00329

>  <IC50>
100 to 250 nM

$$$$
>  <compound>
CC(Nc1ncnc2[nH]cnc12)c1cc(Cl)c2cn[nH]c2c1-c1cccc(F)c1 (centres undefined)

>  <measurement-target>
UniProt O00329

>  <IC50>
< 50 nM

$$$$
>  <compound>
CC(Nc1ncnc2[nH]cnc12)c1cc(Cl)c2cccnc2c1N1CCN(C(=O)c2cccnc2)CC1 (centres undefined)

>  <measurement-target>
UniProt O00329

>  <IC50>
< 50 nM

$$$$
>  <compound>
CC(Nc1ncnc2[nH]cnc12)c1cc(F)c2cccnc2c1N1CCN(C2CCC2)CC1 (centres undefined)

>  <measurement-target>
UniProt O00329

>  <IC50>
< 50 nM

$$$$
>  <compound>
CC(Nc1ncnc2[nH]cnc12)c1cc(Cl)c2cccnc2c1N1CCCC(CO)C1 (centres undefined)

>  <measurement-target>
UniProt O00329

>  <IC50>
100 to 250 nM

$$$$
>  <compound>
CC(Nc1ncnc2[nH]cnc12)c1cc(Cl)c2cccnc2c1N1CCN(CC(=O)N(C)C)CC1 (centres undefined)

>  <measurement-target>
UniProt O00329

>  <IC50>
< 50 nM

$$$$
>  <compound>
CC(Nc1ncnc2[nH]cnc12)c1cc(Cl)c2cccnc2c1N1CCC(CCO)CC1 (centres undefined)

>  <measurement-target>
UniProt O00329

>  <IC50>
100 to 250 nM

$$$$
>  <compound>
C[C@H](Nc1ncnc2[nH]cnc12)c1cc(F)c2cccnc2c1-c1cccc(F)c1

>  <measurement-target>
UniProt O00329

>  <IC50>
< 50 nM

$$$$
>  <compound>
CC(Nc1ncnc2[nH]cnc12)c1cc(Cl)c2cccnc2c1N1CCN(C2CC2)CC1 (centres undefined)

>  <measurement-target>
UniProt O00329

>  <IC50>
< 50 nM

$$$$
>  <compound>
CCc1cc(C(C)Nc2ncnc3[nH]cnc23)c(-c2cccc(F)c2)c2ncccc12 (centres undefined)

>  <measurement-target>
UniProt O00329

>  <IC50>
50 to 100 nM

$$$$
>  <compound>
CC(Nc1ncnc2[nH]cnc12)c1cc(Cl)c2cccnc2c1N1CCN(C(=O)c2cnccn2)CC1 (centres undefined)

>  <measurement-target>
UniProt O00329

>  <IC50>
< 50 nM

$$$$
>  <compound>
CC(Nc1ncnc2[nH]cnc12)c1cc(Cl)c2ccncc2c1N1CC[C@H](F)C1 (some centres undefined)

>  <measurement-target>
UniProt O00329

>  <IC50>
250 to 500 nM

$$$$
>  <compound>
CC(Nc1ncnc2[nH]cnc12)c1cc(Cl)c2cnn(C)c2c1-c1cc(F)cc(F)c1 (centres undefined)

>  <measurement-target>
UniProt O00329

>  <IC50>
< 50 nM

$$$$
>  <compound>
CC(Nc1ncnc2[nH]cnc12)c1cc(Cl)c2cccnc2c1N1CCN(C(=O)c2ccccn2)CC1 (centres undefined)

>  <measurement-target>
UniProt O00329

>  <IC50>
< 50 nM

$$$$
>  <compound>
CC(Nc1ncnc2[nH]cnc12)c1cc(Cl)c2cccnc2c1N1CCN(C(=O)C2CC2)CC1 (centres undefined)

>  <measurement-target>
UniProt O00329

>  <IC50>
< 50 nM

$$$$
